- test.target: EGFR L858R (Homo sapiens (Human), UniProt P00533, L858R)
- Sequence (P00533 25-1210 L858R): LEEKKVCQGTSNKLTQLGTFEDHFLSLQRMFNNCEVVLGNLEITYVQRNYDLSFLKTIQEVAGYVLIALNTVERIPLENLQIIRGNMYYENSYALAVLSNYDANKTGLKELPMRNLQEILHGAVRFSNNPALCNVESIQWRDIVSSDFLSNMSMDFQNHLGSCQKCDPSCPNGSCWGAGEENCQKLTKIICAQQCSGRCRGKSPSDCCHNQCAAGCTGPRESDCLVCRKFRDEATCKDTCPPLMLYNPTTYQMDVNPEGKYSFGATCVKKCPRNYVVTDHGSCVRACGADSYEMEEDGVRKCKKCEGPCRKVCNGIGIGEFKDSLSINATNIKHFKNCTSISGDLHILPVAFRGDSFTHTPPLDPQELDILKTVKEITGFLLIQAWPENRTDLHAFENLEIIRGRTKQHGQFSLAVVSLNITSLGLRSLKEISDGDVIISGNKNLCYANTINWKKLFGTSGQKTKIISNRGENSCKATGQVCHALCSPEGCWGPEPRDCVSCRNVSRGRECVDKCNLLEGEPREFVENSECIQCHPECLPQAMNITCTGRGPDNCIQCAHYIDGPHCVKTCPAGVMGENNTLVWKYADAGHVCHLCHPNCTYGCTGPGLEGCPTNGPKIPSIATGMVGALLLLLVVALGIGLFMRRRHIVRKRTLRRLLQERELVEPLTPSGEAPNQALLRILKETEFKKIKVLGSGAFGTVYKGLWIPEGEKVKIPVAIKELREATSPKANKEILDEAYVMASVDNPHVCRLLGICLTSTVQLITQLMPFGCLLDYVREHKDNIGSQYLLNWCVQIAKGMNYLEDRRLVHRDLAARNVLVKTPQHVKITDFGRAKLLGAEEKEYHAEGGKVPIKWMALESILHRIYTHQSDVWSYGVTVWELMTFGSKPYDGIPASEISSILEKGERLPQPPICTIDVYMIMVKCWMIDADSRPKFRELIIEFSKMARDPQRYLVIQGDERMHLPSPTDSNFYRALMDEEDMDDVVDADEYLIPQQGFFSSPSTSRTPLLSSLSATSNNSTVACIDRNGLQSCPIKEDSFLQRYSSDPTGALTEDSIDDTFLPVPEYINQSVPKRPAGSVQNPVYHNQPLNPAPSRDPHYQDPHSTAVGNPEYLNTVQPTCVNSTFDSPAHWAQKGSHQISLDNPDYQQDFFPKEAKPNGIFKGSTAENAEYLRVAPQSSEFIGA
- assay.method.text: Biochemical EGFR inhibition assay, EGFR L858R
- test.settings: Caliper mobility shift; 1.0 mM ATP or ATP Km; read-out: Enz EGFR_L858R IC50
IC50 for assorted compounds
State just the number; it will be interpreted in nM.

- compound: "CN(C)CCOc1cc2ncnc(-c3cn(C)nc3-c3ccccc3)c2nc1NC(=O)C1(C(F)(F)F)CC1"
  test.target: "EGFR L858R (Homo sapiens (Human), UniProt P00533, L858R)"
  units.label: "nM"
  IC50: 6.8
- compound: "COc1cc2ncnc(-c3cn(C)nc3-c3ccccc3)c2nc1NC(=O)[C@]1(C(F)(F)F)CCN(C)C1 (single isomer, unassigned)"
  test.target: "EGFR L858R (Homo sapiens (Human), UniProt P00533, L858R)"
  units.label: "nM"
  IC50: 3.1
- compound: "CC(C)Oc1cc2ncnc(-c3cn(C)nc3-c3ccccc3)c2cc1[C@@H](C)O (single isomer, unassigned)"
  test.target: "EGFR L858R (Homo sapiens (Human), UniProt P00533, L858R)"
  units.label: "nM"
  IC50: 2.9
- compound: "[2H]C([2H])([2H])Oc1cc2ncnc(-c3cnn(C([2H])([2H])[2H])c3-c3ccccc3)c2nc1NC(=O)C1(C(F)(F)F)CC1"
  test.target: "EGFR L858R (Homo sapiens (Human), UniProt P00533, L858R)"
  units.label: "nM"
  IC50: 50
- compound: "COc1cc2ncnc(-c3cn(C)nc3-c3ccccc3)c2cc1NC(=O)c1ccccc1C"
  test.target: "EGFR L858R (Homo sapiens (Human), UniProt P00533, L858R)"
  units.label: "nM"
  IC50: 1.8

query: Fetch value of IC50 on EGFR L858R (Homo sapiens (Human), UniProt P00533, L858R) for [2H]C([2H])([2H])n1cc(-c2ncnc3cc(OC)c(NC(=O)C45CC(N(C)C)(C4)C5)nc23)c(-c2ccccc2)n1 .
result: 4.4

query: Would you please give the reported IC50 of COc1cc2ncnc(-c3cn(C)nc3-c3ccccc3)c2cc1NC(=O)[C@@H]1CCN(C)C1 with EGFR L858R (Homo sapiens (Human), UniProt P00533, L858R)?
result: 1.1

query: Name the recorded IC50 of COc1cc2ncnc(-c3cn(C)nc3-c3ccccc3)c2cc1NC(=O)c1nc(C)ccc1F , assay system EGFR L858R (Homo sapiens (Human), UniProt P00533, L858R).
result: 1

query: Print EGFR L858R (Homo sapiens (Human), UniProt P00533, L858R) IC50 for COc1cc2ncnc(-c3cn(C)nc3-c3ccccc3)c2nc1NC(=O)C12CC(N(C)C)(C1)C2 .
result: 5.9

query: Lab note: EGFR L858R (Homo sapiens (Human), UniProt P00533, L858R) assay, enter IC50 for CN1CCC(n2cc(-c3ccc4c(-c5c[nH]nc5-c5ccccc5)ncnc4c3)cn2)CC1 here
result: 1.4

query: State, for EGFR L858R (Homo sapiens (Human), UniProt P00533, L858R), measured IC50 of the compound listed here: Cn1cc(-c2ccc3c(-c4cnn(C)c4-c4ccccc4)ncnc3c2)cn1
result: 1.4

query: Look up EGFR L858R (Homo sapiens (Human), UniProt P00533, L858R) data: IC50 of COc1cc2ncnc(-c3cn(C)nc3-c3ccccc3F)c2cc1NC(=O)[C@]12C[C@H]1CN(C)C2 (single isomer, unassigned) , then report it.
result: 2.7

query: Name the recorded IC50 of CN(C)C12CC(C(=O)Nc3nc4c(-c5cn(C)nc5-c5ccccc5F)ncnc4cc3OC(F)F)(C1)C2 , assay system EGFR L858R (Homo sapiens (Human), UniProt P00533, L858R).
result: 60.4

query: Output reported IC50 of the compound COc1cc2ncnc(-c3cn(C)nc3-c3ccccc3)c2cc1-c1cnc(C(C)(C)O)s1 on EGFR L858R (Homo sapiens (Human), UniProt P00533, L858R).
result: 4.9
